Values were extracted from PubChem BioAssay (NCI).

System: KM20L2 colon
method: NCI tumour cell line growth inhibition, 48 h
result type: TGI

Using the record for CC(C)CC1CC2C(=O)N(c3ccccc3)C(=O)C2c2[nH]c3ccccc3c21 (configuration not stated) , report its TGI.
> 100 µM

Using the record for COc1ccc2[nH]c(=O)cc(C)c2c1[N+](=O)[O-] , report its TGI.
> 100 µM

Using the record for CC12CC(Br)(Br)C(=O)C3C1CCCC32 , report its TGI.
37.9 µM

Using the record for Cc1nsc2cc(Cl)n(C)c(=O)c12 , report its TGI.
> 100 µM

Using the record for O=C1C=C(c2ccccc2)NC1(c1ccccc1)c1cc(-c2ccccc2)[nH]c1-c1ccccc1 (configuration not stated) , report its TGI.
> 100 µM

Using the record for Nc1ncnc2c1ncn2C1(CO)OC(CO)C(O)C1O (configuration not stated) , report its TGI.
> 100 µM

Using the record for O=C(CC(=O)n1nc(-c2ccccc2)c(N=Nc2ccc([N+](=O)[O-])cc2)c1-c1ccccc1)Nc1ccc(Cl)cc1 , report its TGI.
24.9 µM

Using the record for CC1(C)CCOC(Sc2ccccc2)C1 (configuration not stated) , report its TGI.
> 100 µM

Using the record for CCCCCCCCCCCCNC(=S)OCCCC , report its TGI.
> 100 µM

Using the record for COc1cc(C(C)c2cc3c(cc2OCCCCCOc2cc4c(cc2C(C)c2cc(OC)c(OC)c(OC)c2)OCO4)OCO3)cc(OC)c1OC (configuration not stated) , report its TGI.
> 100 µM

Using the record for CC(=O)NC1=C(NCCO)C(=O)c2ccccc2C1=O , report its TGI.
> 50 µM

Using the record for CC[n+]1c(/C=C/c2cc(C(=O)OC)n3c2sc2ccccc23)sc2ccccc21 , report its TGI.
35.1 µM
